pIC50: −log10 of the molar value.
// merged dataset of pIC50 values, system = UniProtKB Q9UM73, multiple refs

Before answering, review these 7 worked examples.
Clc1cccc(Cl)c1CN1CCNc2ncc(I)cc21	5.00 to 6.00
CCCS(=O)(=O)Nc1ccc(F)c(C(=O)c2c[nH]c3ncc(OC)cc23)c1F	≥ 5.00
Cc1n[nH]c2nc(-c3ccc(O)cc3F)c(C#N)c(C(=O)NN3CCN(C)CC3)c12	6.00 to 7.00
CCCN1CCC=C(c2ccc(Nc3nc(Nc4cc(Cl)ccc4C(N)=O)c4cc[nH]c4n3)c(OC)c2)C1	9.00 to 9.60
CNC(=O)c1c(F)cccc1Nc1nc(Nc2ccc3c(c2)N(C(=O)CN(C)C)CC3)nc2[nH]ccc12	6.70 to 8.30
O=C(c1ccc(-c2cnc3c(c2)N(Cc2cc(Cl)ccc2C(F)(F)F)CCN3)cc1)N1CCC(N2CCCC2)CC1	> 7.00
O=C(c1cccc(-c2cnc3c(c2)N(Cc2cc(Cl)ccc2C(F)(F)F)CCN3)c1)N1CCN(c2ccccc2Cl)CC1	6.00 to 7.00

Then this compound:
Form: Entry = O=C(O)c1ccc(-c2cnc3c(c2)N(Cc2cc(F)ccc2F)C(=O)CN3)cc1 | System = UniProtKB Q9UM73 | pIC50 = ____
5.00 to 6.00

====

// merged dataset of pIC50 values, system = UniProt:Q9UM73, multiple refs
pIC50: −log10 of the molar value.

Before answering, review these 3 worked examples.
CN1CCC(N2C(=O)c3cc4nc(-c5c(NCC(O)COc6ccc(C(C)(C)C)cc6)cc[nH]c5=O)[nH]c4cc3C2=O)CC1 (stereo not shown)	< 4.82
COc1cc(N2CCN(C(C)C)CC2)ccc1Nc1nc(Nc2cccc(C)c2C(N)=O)c2cc[nH]c2n1	6.70 to 8.30
O=C(c1ccc(-c2cnc3c(c2)N(Cc2c(Cl)cccc2Cl)C(=O)CN3)cc1)N1CCC(N2CCCC2)CC1	6.00 to 7.00

Then this compound:
Given the compound CCCN1CCC(COc2ccc(Nc3nc(Nc4cccc(F)c4C(N)=O)c4cc[nH]c4n3)c(OC)c2)CC1 , what is its reported pIC50?
8.40 to 8.90

====

pIC50: −log10 of the molar value.
// merged dataset of pIC50 values, system = ALK tyrosine kinase receptor (Homo sapiens, UniProt Q9UM73), multiple refs

Before answering, review these 5 worked examples.
CN1CCC(N2C(=O)c3cc4nc(-c5c(NC[C@@H](O)COc6cccc7c6OC(F)(F)C(F)O7)cc[nH]c5=O)[nH]c4cc3C2=O)CC1 (stereo partly shown)	5.30 to 6.30
O=C(c1cnc2c(c1)N(Cc1cc(Cl)ccc1Cl)CCN2)N1CCC[C@H]1CN1CCCC1	5.00 to 6.00
COc1cc2c(cc1Nc1nc(Nc3cccc(F)c3C(N)=O)c3cc[nH]c3n1)N(C(=O)CN1CCOCC1)CC2	6.70 to 8.30
CN1CCN(c2ccc(-c3cnc4c(c3)N(Cc3cccc(F)c3C(F)(F)F)CCN4)cn2)CC1	6.00 to 7.00
COc1cc2c(cc1Nc1nc(Nc3cc(F)cc(F)c3C(=O)NCC(C)C)c3cc[nH]c3n1)N(C(=O)CN(C)C)CC2	8.40 to 8.90

Given the molecule Cc1cccc(OCC(O)CNc2cc[nH]c(=O)c2-c2nc3cc4c(cc3[nH]2)C(=O)N(C2CCN(C)CC2)C4=O)c1 (stereo not shown) , what is its reported pIC50?
4.82 to 5.30

Please give the result for O=C(c1cnc2c(c1)N(Cc1cc(Cl)ccc1Cl)CCN2)N1CCC(n2c(=O)[nH]c3ccccc32)CC1 too.
5.00 to 6.00

====

// merged dataset of IC50 values, system = ALK tyrosine kinase receptor (Homo sapiens, UniProt Q9UM73), multiple refs

Before answering, review these 6 worked examples.
Cc1ccc(NC(=O)CN(C)C)cc1Nc1nc(Nc2ccccc2C(N)=O)c2cc[nH]c2n1	1.26 to 3.98 nM
NS(=O)(=O)c1ccc(CNC(=O)c2cnc3c(c2)N(Cc2cc(Cl)ccc2Cl)CCN3)cc1	1000 to 10000 nM
COC(=O)c1c(-c2ccc(O)cc2)nc2[nH]nc(N)c2c1-c1ccc(N2CCN(C)CC2)cc1	< 100 nM
CCOC(=O)c1c[nH]c2c(=O)[nH]c3ccc(S(=O)(=O)NC[C@H]4CCNC4)cc3c12	100 to 1000 nM
O=C(c1cccc(-c2cnc3c(c2)N(Cc2cc(Cl)ccc2C(F)(F)F)CCN3)c1)N1CCN(C(c2ccccc2)c2ccccc2)CC1	1000 to 10000 nM
CNC(=O)c1c(F)cccc1Nc1nc(Nc2cc(N(C)C(=O)CN(C)C)c(C)cc2OC)nc2[nH]ccc12	5.01 to 200 nM

Then this molecule:
Given the molecule CCCN1CCC=C(c2ccc(Nc3nc(Nc4ccccc4C(N)=O)c4cc[nH]c4n3)c(OC)c2)C1 , what is its reported IC50?
0.251 to 1 nM

====

pIC50: −log10 of the molar value.
// merged dataset of pIC50 values, system = ALK tyrosine kinase receptor (Homo sapiens), multiple refs

Before answering, review these 5 worked examples.
CN(C)CC(=O)NCC#Cc1cnc2c(c1)N(Cc1c(Cl)cccc1Cl)CCN2	6.00 to 7.00
Cc1cc(N2CCOCC2)ccc1Nc1nc(Nc2ccccc2C(N)=O)c2cc[nH]c2n1	8.40 to 8.90
COc1cc(N2CCN(C(C)C)CC2)c(F)cc1Nc1nc(Nc2cccc(F)c2C(N)=O)c2cc[nH]c2n1	9.00 to 9.60
N#Cc1c(-c2ccc(O)cc2)nc2[nH]ncc2c1-c1ccc(CN)cc1	6.00 to 7.00
C[C@@H](Oc1cc(C(=O)Nc2ccc(C(=O)N3CCN(C)CC3)cc2)nnc1N)c1c(Cl)ccc(F)c1Cl	> 9.00

Given the compound O=C(NC(c1ccccc1)c1ccccc1)c1cccc(-c2cnc3c(c2)N(Cc2cc(Cl)ccc2C(F)(F)F)CCN3)c1 , what is its reported pIC50?
6.00 to 7.00

Please give the result for Cc1c(OC[C@H](O)CNc2cc[nH]c(=O)c2-c2nc3cc4c(cc3[nH]2)CN(C2CCN(C)CC2)C4=O)ccc2c1OCO2 too.
5.30 to 6.30

Please give the result for O=S(=O)(CCN1CCCC1)Nc1ccc(-c2cnc3c(c2)N(Cc2cc(F)ccc2F)CCN3)cc1 too.
6.00 to 7.00

Please give the result for N#Cc1c(-c2ccc(O)cc2F)nc2[nH]nc(N)c2c1-c1ccc(N2CCC(N)CC2)o1 too.
> 7.00

Please give the result for Cc1ccc(OC[C@H](O)CNc2cc[nH]c(=O)c2-c2nc3c(C)c4c(cc3[nH]2)C(=O)N(C2CCN(C)CC2)C4=O)c(C)c1 too.
5.30 to 6.30

Please give the result for CNC(=O)c1c(F)cccc1Nc1nc(Nc2cc3c(cc2OC)CCN3C(=O)COC)nc2[nH]ccc12 too.
6.70 to 8.30

Please give the result for O=C(NCCc1ccccc1)c1cnc2c(c1)N(Cc1cc(Cl)ccc1Cl)CCN2 too.
6.00 to 7.00

Please give the result for O=C(NCc1cc(C(F)(F)F)cc(C(F)(F)F)c1)c1cccc(-c2cnc3c(c2)N(Cc2cc(Cl)ccc2C(F)(F)F)CCN3)c1 too.
6.00 to 7.00

Please give the result for Cc1ccc(NC(=O)CN(C)C)cc1Nc1nc(Nc2ccccc2C(=O)NCCO)c2cc[nH]c2n1 too.
6.70 to 8.30

Please give the result for CNC(=O)c1cccc(C)c1Nc1nc(Nc2ccc(N3CCN([C@H]4C5CC6CC4C[C@](O)(C6)C5)CC3)cc2OC)ncc1C(F)(F)F too.
6.10

====

// merged dataset of IC50 values, system = UniProt:Q9UM73, multiple refs

Before answering, review these 2 worked examples.
CC(C)(C)c1n[nH]c2nc(-c3ccc(O)cc3F)c(C#N)c(-c3ccc(N4CCNCC4)cc3)c12	100 to 1000 nM
CN1CCN(C(=O)c2ccc(-c3cnc4c(c3)N(Cc3cc(F)ccc3F)C(=O)C(C)(C)N4)cc2)CC1	1000 to 10000 nM

Then this compound:
Given the compound COc1ccc(NC(=O)CN(C)C)cc1Nc1nc(Nc2cccc(F)c2C(N)=O)c2cc[nH]c2n1 , what is its reported IC50?
0.251 to 1 nM

====

pIC50: −log10 of the molar value.
// merged dataset of pIC50 values, system = ALK tyrosine kinase receptor (Homo sapiens, UniProt Q9UM73), multiple refs

Before answering, review these 5 worked examples.
CCOC(=O)c1ccc(-c2cnc3c(c2)NC(=O)CN3)cc1	< 4.00
CN1CCC(N2C(=O)c3cc4nc(-c5c(NC[C@@H](O)Cn6ccc7c(C#N)cccc76)cc[nH]c5=O)[nH]c4cc3C2=O)CC1	5.30 to 6.30
Cc1n[nH]c2nc(-c3ccc(O)cc3F)c(C#N)c(-c3ccc(C#N)cc3)c12	5.00 to 6.00
N#Cc1c(-c2ccc(O)cc2F)nc2[nH]ncc2c1-c1ccc(N2CCOCC2)o1	> 7.00
Cc1n[nH]c2nc(-c3ccc(O)cc3F)c(C#N)c(-c3ccc(N4CCNCC4)c([N+](=O)[O-])c3)c12	6.00 to 7.00

Given the compound O=C(c1cnc2c(c1)N(Cc1cc(Cl)ccc1Cl)CCN2)N1CCN(c2ccccc2)CC1 , what is its reported pIC50?
4.00 to 5.00

Please give the result for Cc1cc2c(cc1Nc1nc(Nc3cccc(F)c3C(N)=O)c3cc[nH]c3n1)N(C(=O)CN(C)C)CCC2 too.
6.70 to 8.30
